Biological target: HIV-1 Env of strain CNE3 (clade AE), on Env-pseudovirus (HIV-1 strain CNE3)
Experiment: cell-based or functional assay
Quantity kind: IC50, neutralization of Env-pseudovirus (TZM-bl assay)

Binder	Val
CAP256-VRC26.08 (antibody, V domains shown) VH: EVQLVESGGGVVQPGRSLTLSCAASQFTFSNYGMHWVRQAPGKGLEWVASVSNDGTKKYHGDSVWGRFTISRDNSKNTLFLQMSSLRAEDTAVYFCVRDQREDECEEWWSDYYDFGRELPCRKFRGLGLAGIFDIWGHGTMVTVSS VL: QSALTQPPSVSAAPGQKVTISCSGNSSNIGNNFVSWYQQVPGTAPKLLLYETYRRPSGIPDRFSGSKSGTSATLAITGLQTGDEADYYCTVWGVRKGVGAVFGTGTKVTVLG	> 50 µg/mL

query: Which value of IC50, neutralization of Env-pseudovirus (TZM-bl assay) has been reported for CAP256-VRC26.07 (antibody, V domains shown) VH: EVQLVESGGGVVQPGRSLRLSCVGSQFSFNRYGMHWVRQAPGKGLEWVAGISFDGTDRYHADNVWGRFTISRDNSKNTLYLQMSSLRAEDTALYYCAKDLREDECEEWWSDYYDFGKKLPCRKSRGVAGVFDKWGQGTMVTVSS VL: QAVLTQPPSVSAAPGQNVTISCSGSGSNIGNNFVSWYQQRPGTAPKLLIYESNKRPSGIPDRFSGSKSGTSATLAITGLQTGDEAYYYCATWAARLNSARVFGTGTMVTVLG in the records?
result: > 50 µg/mL

Provenance of the data: patent US20200199204A1
